assay: Polymerization of acrylonitrile at 70° C. with benzoyl peroxide in the presence of nitroxide inhibitors; conditions: acrylonitrile 10 ml, benzoyl peroxide 0.35 g, inhibitor 0.1 g (0.1 ml for 6), water bath 70° C.
# Inhibition Time annotations
Numeric answer only, unit min assumed.

Please review the entries below; each comes with its answer.
Molecule | Inhibition Time, min
CC1(C)CC2(CC(C)(C)N1[O])OCCCO2 [Example 2] | 60
CC1(C)CC2(CC(C)(C)N1[O])OCCCO2 [Example 1] | 40
CC1(C)CCCC(C)(C)N1O | 60

Recorded Inhibition Time for "COC1CC(C)(C)N(O)C(C)(C)C1" , please?
305

Values compiled from patent US7132540B1.
